Consider the following molecules; for each one, report its TGI.
- System: MOLT-4 leukemia
- Method summary: NCI tumour cell line growth inhibition, 48 h
One number for each entry, in µM.

                                   molecule  endpoint_label  test_result
0  CC(NC(=O)Cc1ccc(OP(=O)(OCc2ccc([N+](=O)[O-])o2)N(C)CCCCCl)cc1)c1ccc(OCC2CCCCC2)c(C(N)=O)c1 (centres undefined)             TGI         4.38

Request: API: value(readout= TGI, system= MOLT-4 leukemia, query= "COc1cc(/C=C/C(=O)c2cccc3ccccc23)cc(OC)c1OC" )
Result: 34.4
